Can you tell me % covalent modification of K-Ras G12S for the items I'm about to list?
Molecular target: K-Ras(G12S) (Homo sapiens, UniProt P01116, G12S)
Assay: Covalent modification of recombinant K-Ras(G12S) by whole-protein mass spectrometry
Assay type: binding
Parameters: human K-Ras (G12S, aa 1-169); 6xHis tag + TEV cleavage site (N, cleaved yes); made in house; host or cells: E. coli BL21(DE3)
Settings: 24-h incubation, 100 μM compound, 23° C., pH 7.5
Answers are plain numbers, in %.

Illustrative cases are given below, each with its answer.
CC1(c2cc(NCC(=O)N3CC[C@H]4OC(=O)[C@H]4C3)c(O)cc2Cl)CC1 : 0
N#CC[C@H]1CN(c2nc(OCC34CCCN3CCC4)nc3c(F)c(-c4cccc5cccc(Cl)c45)ncc23)CCN1C(=O)C1CC(=O)O1 (stereo partly drawn) : 100
CN1CCC[C@@H]1COc1nc2c(c(N3C[C@@H]4OC(=O)[C@@H]4C3)n1)CCN(c1cccc3cccc(Cl)c13)C2 : 94.0
O=C1OCC12CCN(c1nc(OCC34CCCN3CCC4)nc3c(F)c(-c4cccc5cccc(Cl)c45)ncc13)CC2 : 42.5
O=C1O[C@H]2CN(c3nc(OCC45CCCN4CCC5)nc4c(F)c(-c5cccc6cccc(Cl)c56)ncc34)CC[C@@H]12 : 100

Then this compound:
Sure, the documented % covalent modification of K-Ras G12S for O=C1O[C@@H]2CCN(c3ncnc4c(F)c(-c5ccccc5F)c(Cl)cc34)C[C@H]12 is 0
